- methodDescription: Plasma stability assay of Tam-labeled peptides
- testParameters: over a time period of 24 h
*1 amine or outer side, *2 acyl side, *3 side chain or, on linkers, in order; H or OH if unused. Where a SMILES comes first, the peptide text is derived from it. Bridges are numbered along the chain shown (N, C = ends). [ ]: non-standard residue; d: D form. The star is where a group is joined. X1 = CN(C)c1ccc2c(-c3cc(C(=O)*)ccc3C(=O)[O-])c3ccc(=[N+](C)C)cc-3oc2c1; X2 = CN(C)c1ccc2c(-c3cc(C(=O)*)ccc3C(=O)O)c3ccc(=[N+](C)C)cc-3oc2c1; hCys = N[C@@H](CCS)C(=O)O; CH2 = C([*:1])[*:2]
observedProperty: stability in blood plasma

compound | observedProperty | valueObserved
C[C@@H]1NC(=O)[C@H](Cc2ccccc2)NC(=O)[C@H](CCC(N)=O)NC(=O)[C@H](NC(=O)[C@@H]2CCCN2C(=O)[C@H](Cc2ccccc2)NC(=O)[C@H](Cc2ccc(O)cc2)NC(=O)c2ccc(C(=O)[O-])c(-c3c4ccc(=[N+](C)C)cc-4oc4cc(N(C)C)ccc34)c2)CSCSC[C@@H](C(=O)O)NC(=O)[C@H](Cc2ccccc2)NC1=O [$$ 8, Tam-[c4,C9-TA]-chemerin-9] (X1-YFP[dC]QFAFC-OH; linker 4-9 via CH2) | stability in blood plasma | completely stable
C[C@@H]1NC(=O)[C@H](Cc2ccccc2)NC(=O)[C@H](CCC(N)=O)NC(=O)[C@H](NC(=O)[C@@H]2CCCN2C(=O)[C@H](Cc2ccccc2)NC(=O)[C@H](Cc2ccc(O)cc2)NC(=O)c2ccc(C(=O)O)c(-c3c4ccc(=[N+](C)C)cc-4oc4cc(N(C)C)ccc34)c2)CSSC[C@@H](C(=O)O)NC(=O)[C@H](Cc2ccccc2)NC1=O [$$ 5, Tam-[c4,C9]-chemerin-9] (X2-YFP[dC]QFAFC-OH; disulfide 4-9) | stability in blood plasma | completely stable
C[C@@H]1NC(=O)[C@H](Cc2ccccc2)NC(=O)[C@H](CCC(N)=O)NC(=O)[C@H](NC(=O)[C@@H]2CCCN2C(=O)[C@H](Cc2ccccc2)NC(=O)[C@@H](N)Cc2ccc(O)cc2)CSCSCC[C@@H](C(=O)O)NC(=O)[C@H](Cc2ccccc2)NC1=O [$$ 9, [c4,X9-TA]-chemerin-9] (H-YFP[dC]QFAF[hCys]-OH; linker 4-9 via CH2) | stability in blood plasma | completely stable
